Test system: SF-268 CNS
Test: NCI tumour cell line growth inhibition, 48 h; in the data active = GI50 below about 0.43 µM; inactive = the rest
Hi there, use one of these labels in your reply, thanks! active, inactive

Recorded results for 10 compounds are shown here.
Q: # outcome recorded in this test, key = "CC(C)C[C@H](NC(=O)/C=C/Cn1ccc2ccccc2c1=O)B(O)O"
Ans: inactive

Q: # outcome recorded in this test, key = "CC(=O)N[C@H]1CSSC[C@@H](C(N)=O)NC(=O)[C@H](C(C)C)NC(=O)[C@H](C)NC(=O)[C@H](Cc2cnc[nH]2)NC1=O"
Ans: inactive

Q: # outcome recorded in this test, key = Cc1ccc(-c2nc3ccc(Cl)cc3c(=O)n2N2C(=O)CSC2c2ccccc2Cl)cc1 (stereo not drawn)
Ans: inactive

Q: # outcome recorded in this test, key = "O=c1c2ccccc2c(=O)c2c1[nH]c1c(-c3ccccc3)c(-c3ccccc3)c(=O)c12"
Ans: inactive

Q: # outcome recorded in this test, key = "Nc1ccc(-c2nc3ccc(Cc4ccc5nc(-c6ccc(N)cc6)[nH]c5c4)cc3[nH]2)cc1"
Ans: inactive

Q: # outcome recorded in this test, key = "C[C@H](O)C(=O)N1CCC(CCn2c(Sc3cc4c(cc3Br)OCO4)nc3c(N)ncnc32)CC1"
Ans: inactive

Q: # outcome recorded in this test, key = "COc1cccc2c(=O)c3c(sc12)c(N1CCNCC1)nc1ccccc13"
Ans: inactive

Q: # outcome recorded in this test, key = "CN(C)CCN1C(=O)c2ccc3c4c(ccc(c24)C1=O)C(=O)N(CCN=C=S)C3=O"
Ans: active

Q: # outcome recorded in this test, key = "O=C(/C=C\c1ccc(NCc2ccc(C(=O)O)cc2)cc1)CCl"
Ans: inactive

Q: # outcome recorded in this test, key = Nc1nc(F)nc2c1ncn2C1OC(CO)C(O)C1O (stereo not drawn)
Ans: inactive

New cases:
Q: # outcome recorded in this test, key = "CC1=C[C@H]2c3c(c(O)c(O)c4oc(-c5ccccc5)cc(=O)c34)[C@H](c3cc(O)c(O)c4oc(-c5ccccc5)cc(=O)c34)[C@H]2C(C)(C)C1"
Ans: inactive

Q: # outcome recorded in this test, key = "Cc1ncc(CCCN(C)C)cc1Nc1ncc2c(n1)-c1ccc(C(F)(F)F)cc1NC(=S)C2"
Ans: active

Q: # outcome recorded in this test, key = "COc1ccc(-c2nn(-c3ccc(NC(=O)Nc4cc(C(F)(F)F)cc(C(F)(F)F)c4)cc3)cc2-c2ccncc2)cc1Cl"
Ans: inactive
